# Design: dose or concentration left out as unconfirmed
# ASSAY_CONDITIONS: mouse, in vivo
ASSAY_READOUT: tissue uptake at 1.5 h (%ID/g)
I only need the number, in %ID/g, no unit after it.

Problem: Fill in the blank: the reported tissue uptake at 1.5 h of CC(=O)N(O)CCCCCNC(=O)CCC(=O)N(O)CCCCCNC(=O)CCC(=O)N(O)CCCCCNC(=S)Nc1ccc(NC(=S)NCCCC[C@@H]2NC(=O)[C@@H](Cc3ccc(O)cc3)NC(=O)[C@H](CC(=O)O)NC(=O)CNC(=O)[C@H](CCCNC(=N)N)NC2=O)cc1 [[^68Ga]Ga-DFO-c(RGDyK), metal not drawn] is ____.
Solution: 1.54
